B1: Pre-mRNA-processing factor 40 homolog B, residues 274 to 332; numbered along this chain, Q6NWY9 (parent)
chain: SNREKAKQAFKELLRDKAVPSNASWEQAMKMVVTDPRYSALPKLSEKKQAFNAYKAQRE

variants of: B1; assay: abundance fitness (aPCA) (normalised: wild type 0, dead -1); higher = more abundant; growth selection in yeast, the domain comes from the species named; details: Homo sapiens
abundance fitness below -0.6 gives NOT MET; abundance fitness at or above it gives MET.

Example results:
>  <mutantName>
Q27C

>  <assignedLabel>
MET

$$$$
>  <mutantName>
E26Y

>  <assignedLabel>
MET

$$$$
>  <mutantName>
K55N

>  <assignedLabel>
MET

$$$$
>  <mutantName>
A28L

>  <assignedLabel>
NOT MET

$$$$

Say whether E59H shows abundance fitness of -0.6 or more.
MET
